Taken from patent US20220017636A1.

# Tgt: T1, MAGEB2 peptide … (SEQ ID NO: 1) complexed with HLA-A*02:01 on the cell surface (human)
# T1 construct: whole, on cells; also called pMAGE-HLA; MAGEB2 pMHC
# Assay Text: flow cytometry, peptide-loaded T2 cells;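 note: binding of single-chain Fv antibody constructs, raised in XenoMouse, to peptide-pulsed T2 cells measured by flow cytometry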
Assay Readout: Signal/background
Lab note: jot the number down without any unit.

Past entries and their recorded results:
- Binder: "18181-B8 (scFv, scFv in bacterial lysate, detected with anti-Flag M2) scFv: EVQLLESGPGLVKPSQTLSLTCTVSGGSISSGGYYWSWIRQHPGKGLEWIGYISHSGSTYYNPSLKSRVTISVDTSKNQFSLNLTSVTAADTAVYYCAREKMWFGVLNYYYGMDVWGQGTTVTVSSGGGGSGGGGSGGGGSELVMTQTPLSLPVTPGEPASISCRSSQSLLHRNGYNYLDWYLQKPGQSPQLLIYLGSNRASGVPDRFIGSGSGTDFTLEISRVEAEDVGVYYCMQALQTPSFGQGTKVEIK"
  Signal/background: 179
- Binder: "18182-G6 (scFv, scFv in bacterial lysate, detected with anti-Flag M2) scFv: EVQLLESGGGLVQPGGSLRLSCAASGFTFSSYAMSWVRQAPGKGLEWVSAISGSGGGTYYADSVKGRFTISRDNSKNTLYLQMNSLRAEDTAAYYCVTGKGVHLGFDYWGQGTLVTVSSGGGGSGGGGSGGGGSELVLTQPPSVSVAPGQTARITCGGNNIGSKSVHWHQQKPGQSPVLVIYDDNDRPSGIPERFSGFNSGNTATLTISRVEAGDEADYYCQVWDSSSDHVVFGGGTKLTVL"
  Signal/background: 365

Which Signal/background is reported for this binder? 18179-E1 (scFv, scFv in bacterial lysate, detected with anti-Flag M2) scFv: EVQLLESGGGLVQPGGSLRLSCAASGFTFSNAWMSWVRQAPGKGLEWVGRIKGNTYGGTTDYAAPVKGRFTISRDDSKNTLYLQMNSLKTEDTAVYYCTTPSYSGSYYNYFSVMDVWGQGTTVTVSSGGGGSGGGGSGGGGSELVMTQSPSSLSASVGDRVTITCRTSQSISSYLNWYQQKPGRAPKLLIFAASSLQGGVPSRFSGSGSGTDFTLTISSLQPEDFATYYCQQTYSMPFTFGPGTKVDIK
419
